- Target Entity: Cytochrome P450 1A1 (Homo sapiens, UniProt P04798)
- Sequence (P04798 whole entry): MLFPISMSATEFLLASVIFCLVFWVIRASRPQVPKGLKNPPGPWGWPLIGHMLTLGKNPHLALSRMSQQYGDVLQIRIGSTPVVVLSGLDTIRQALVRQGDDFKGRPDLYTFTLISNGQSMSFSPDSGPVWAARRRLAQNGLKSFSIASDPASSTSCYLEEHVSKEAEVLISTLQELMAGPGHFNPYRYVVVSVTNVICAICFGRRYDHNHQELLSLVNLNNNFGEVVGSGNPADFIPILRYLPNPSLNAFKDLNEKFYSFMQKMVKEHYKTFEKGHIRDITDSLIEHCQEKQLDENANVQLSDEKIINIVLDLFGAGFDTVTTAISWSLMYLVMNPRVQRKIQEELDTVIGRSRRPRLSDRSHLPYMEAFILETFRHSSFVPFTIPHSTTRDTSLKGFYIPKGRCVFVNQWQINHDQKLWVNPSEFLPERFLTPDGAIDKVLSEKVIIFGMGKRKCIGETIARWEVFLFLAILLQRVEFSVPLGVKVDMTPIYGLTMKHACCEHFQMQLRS
- Assay Remarks: Inhibition of CYP1A1 in human Caco-2 cells assessed as relative activity by measuring fold change at 5.0 uM incubated for 12 hrs by EROD assay relative to control
- Format: cell-based
- Test Settings: caco-2, 12 h
Grouping key: fold change (FC). Bins: class 1 (below 0.1), class 2 (0.1 to below 0.3), class 3 (0.3 or more)

{"Molecule": "Cn1c(=O)n(C)c2cc(C(=O)/C=C/c3ccccc3)ccc21", "Category": "class 2"}
{"Molecule": "Cn1c(=O)n(C)c2cc(C(=O)/C=C/c3ncccn3)ccc21", "Category": "class 3"}
{"Molecule": "Cn1c(=O)n(C)c2cc(C(=O)/C=C/c3cn(Cc4ccccc4)c4ccccc34)ccc21", "Category": "class 3"}
{"Molecule": "C#Cc1cccc(/C=C/C(=O)c2ccc3c(c2)n(C)c(=O)n3C)c1", "Category": "class 1"}
{"Molecule": "Cn1c(=O)n(C)c2cc(C(=O)/C=C/C=C/c3ccccc3)ccc21", "Category": "class 3"}
{"Molecule": "CC(=O)n1cc(/C=C/C(=O)c2ccc3c(c2)n(C)c(=O)n3C)c2ccccc21", "Category": "class 3"}
{"Molecule": "C#Cc1ccc(/C=C/C(=O)c2ccc3c(c2)n(C)c(=O)n3C)cc1", "Category": "class 1"}
{"Molecule": "Cn1c(=O)n(C)c2cc(C(=O)/C=C/c3cc4ccccc4o3)ccc21", "Category": "class 3"}
{"Molecule": "COc1ccc2c(c1)c(/C=C/C(=O)c1ccc3c(c1)n(C)c(=O)n3C)cn2Cc1ccccc1", "Category": "class 3"}
{"Molecule": "CCCCOc1ccc(/C=C/C(=O)c2ccc3c(c2)n(C)c(=O)n3C)cc1", "Category": "class 2"}

Which of the defined bands does the recorded fold change (FC) of `Cn1c(=O)n(C)c2cc(C(=O)/C=C/C3CC3)ccc21` sit within? class 2

Which class is correct for the following molecule? `Cn1c(=O)n(C)c2cc(C(=O)/C=C/c3ccc(F)cc3)ccc21` class 1

Sort into band: `Cn1c(=O)n(C)c2cc(C(=O)/C=C/c3ccc(O[Si](C)(C)C(C)(C)C)cc3)ccc21` class 3

Band for the recorded fold change (FC) of `Cn1c(=O)n(C)c2cc(C(=O)/C=C/C=C/c3ccc(F)cc3)ccc21` ? class 2

Into which category would you place `Cn1c(=O)n(C)c2cc(C(=O)/C=C/c3ccsc3)ccc21` ? class 2
